Assay: Displacement of racemic [3H]CP-101606 from rat forebrain membrane N-methyl-D-aspartate glutamate receptor 2B
pIC50: −log10 of the molar value.
Entries and their pIC50
readoutName: pIC50

1. Oc1ccc2c(c1)OC[C@@H](N1CCC(O)(c3ccc(C(F)(F)F)cc3)CC1)[C@H]2O: 7.70
2. Oc1cc2c(cc1F)[C@H](O)[C@H](N1CCC(O)(c3ccc(F)cc3)CC1)CO2: 7.77
3. Oc1ccc2c(c1)OC[C@H](N1CCC(O)(c3ccccc3)CC1)[C@@H]2O: 6.97
4. Oc1ccc2c(c1)OC[C@@H](N1CCC(Cc3ccccc3)CC1)[C@H]2O: 6.89
5. Oc1ccc2c(c1)OC[C@H](N1CCC(O)(c3ccc(F)cc3)CC1)[C@@H]2O: 7.46
6. C[C@@H]([C@@H](O)c1ccc(O)cc1)N1CCC(O)(c2ccccc2)CC1 [TRAXOPRODIL]: 7.57

---

Molecular target: Glutamate receptor ionotropic, NMDA 2B (Rattus norvegicus)
Sequence (Q00960 whole entry): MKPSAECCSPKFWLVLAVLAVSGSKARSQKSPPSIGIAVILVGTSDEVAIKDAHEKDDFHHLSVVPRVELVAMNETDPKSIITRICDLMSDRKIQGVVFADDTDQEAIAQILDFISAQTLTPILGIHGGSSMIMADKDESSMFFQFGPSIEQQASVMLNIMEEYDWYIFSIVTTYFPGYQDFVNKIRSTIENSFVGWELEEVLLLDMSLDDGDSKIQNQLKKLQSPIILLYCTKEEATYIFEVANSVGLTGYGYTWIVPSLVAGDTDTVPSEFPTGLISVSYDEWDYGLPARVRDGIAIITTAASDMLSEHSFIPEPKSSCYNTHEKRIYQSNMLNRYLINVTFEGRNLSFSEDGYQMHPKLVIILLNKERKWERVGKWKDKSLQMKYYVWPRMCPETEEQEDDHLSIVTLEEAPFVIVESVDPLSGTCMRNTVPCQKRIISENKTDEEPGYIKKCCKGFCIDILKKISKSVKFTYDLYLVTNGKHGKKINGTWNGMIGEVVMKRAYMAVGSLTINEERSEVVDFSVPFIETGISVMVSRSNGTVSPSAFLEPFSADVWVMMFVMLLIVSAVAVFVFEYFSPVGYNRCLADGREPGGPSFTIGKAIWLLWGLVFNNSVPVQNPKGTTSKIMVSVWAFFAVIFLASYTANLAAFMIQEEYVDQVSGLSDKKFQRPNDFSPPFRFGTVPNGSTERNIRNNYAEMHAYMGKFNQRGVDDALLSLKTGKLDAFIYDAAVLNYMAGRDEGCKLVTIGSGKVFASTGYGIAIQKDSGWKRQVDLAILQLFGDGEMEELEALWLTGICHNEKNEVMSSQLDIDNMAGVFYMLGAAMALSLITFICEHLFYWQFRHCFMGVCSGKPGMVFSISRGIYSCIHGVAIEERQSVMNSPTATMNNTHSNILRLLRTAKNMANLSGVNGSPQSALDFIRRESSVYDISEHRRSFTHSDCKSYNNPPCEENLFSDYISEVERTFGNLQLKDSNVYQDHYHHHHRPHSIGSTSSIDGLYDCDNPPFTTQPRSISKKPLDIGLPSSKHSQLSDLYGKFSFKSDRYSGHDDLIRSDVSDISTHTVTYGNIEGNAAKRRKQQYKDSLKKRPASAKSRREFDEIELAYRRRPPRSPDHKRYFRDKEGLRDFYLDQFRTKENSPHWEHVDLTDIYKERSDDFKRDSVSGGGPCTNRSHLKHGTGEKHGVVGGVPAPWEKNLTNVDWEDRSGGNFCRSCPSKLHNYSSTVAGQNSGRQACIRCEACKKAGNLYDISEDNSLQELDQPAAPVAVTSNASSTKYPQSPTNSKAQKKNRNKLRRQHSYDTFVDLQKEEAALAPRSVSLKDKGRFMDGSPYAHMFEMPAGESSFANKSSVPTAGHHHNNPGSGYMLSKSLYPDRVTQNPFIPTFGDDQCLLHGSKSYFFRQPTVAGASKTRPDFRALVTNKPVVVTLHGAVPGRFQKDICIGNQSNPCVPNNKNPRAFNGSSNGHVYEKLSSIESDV
Assay: Compound was evaluated for its blocking effect against N-methyl-D-aspartate glutamate receptor 2B
Set-up: species or system xenopus oocytes
readoutName: IC50 (nM)

1. Oc1ccc2c(c1)OC[C@@H](N1CCC(O)(c3ccc(F)cc3)CC1)[C@H]2O (stereo in doubt; 12a): 206

---

Assay: Displacement of racemic [3H]CP-101606 from rat forebrain membrane N-methyl-D-aspartate glutamate receptor 2B
pIC50: −log10 of the molar value.
readoutName: pIC50

1. Oc1ccc2c(c1)OC[C@@H](N1CCC(O)(c3ccccc3)CC1)[C@H]2O (stereo in doubt; 5a): 7.51
2. Oc1ccc2c(c1)OC[C@@H](N1CCC(O)(c3ccc(F)cc3)CC1)[C@H]2O (stereo in doubt; 12a): 7.74
3. Oc1ccc2c(c1)OC[C@@H](N1CCC(O)(c3ccc(F)cc3)CC1)[C@H]2O (stereo in doubt; 10a): 7.55
4. Oc1ccc2c(c1)OC[C@@H](N1CCC(O)(c3ccccc3)CC1)[C@H]2O (stereo in doubt; 3a): 7.27

---

Target: Glutamate receptor ionotropic, NMDA 2B (Rattus norvegicus)
Test: Ability to displace of racemic […] of [3H]CP-101606 binding to N-methyl-D-aspartate glutamate receptor 2B in rat forebrain membranes.
Type: cell membranes, Membrane
pIC50: −log10 of the molar value.
readoutName: pIC50

1) Oc1ccc2c(c1)OC[C@@H](N1CCC(O)(c3ccc(F)cc3)CC1)C2: 6.52

---

Species: Rattus norvegicus
Experiment: Compound was tested for neuroprotection against NMDA-Induced toxicity in cultured rat hippocampal neurons.
Assay type: functional
readoutName: IC50 (nM)

1. Oc1ccc2c(c1)OC[C@@H](N1CCC(O)(c3ccccc3)CC1)[C@H]2O (stereo in doubt; 3a): 129
2. Oc1ccc2c(c1)OC[C@@H](N1CCC(O)(c3ccccc3)CC1)[C@H]2O (stereo in doubt; 5a): 9
3. Oc1ccc2c(c1)OC[C@@H](N1CCC(O)(c3ccc(F)cc3)CC1)[C@H]2O (stereo in doubt; 12a): 4
